assay-target: T1, human CD105 (human, UniProt P17813 26-658)
T1 construct: whole, on cells; Target as carried by HUVEC cells in the FACS assays; also called endoglin; END
T1 sequence (looked up): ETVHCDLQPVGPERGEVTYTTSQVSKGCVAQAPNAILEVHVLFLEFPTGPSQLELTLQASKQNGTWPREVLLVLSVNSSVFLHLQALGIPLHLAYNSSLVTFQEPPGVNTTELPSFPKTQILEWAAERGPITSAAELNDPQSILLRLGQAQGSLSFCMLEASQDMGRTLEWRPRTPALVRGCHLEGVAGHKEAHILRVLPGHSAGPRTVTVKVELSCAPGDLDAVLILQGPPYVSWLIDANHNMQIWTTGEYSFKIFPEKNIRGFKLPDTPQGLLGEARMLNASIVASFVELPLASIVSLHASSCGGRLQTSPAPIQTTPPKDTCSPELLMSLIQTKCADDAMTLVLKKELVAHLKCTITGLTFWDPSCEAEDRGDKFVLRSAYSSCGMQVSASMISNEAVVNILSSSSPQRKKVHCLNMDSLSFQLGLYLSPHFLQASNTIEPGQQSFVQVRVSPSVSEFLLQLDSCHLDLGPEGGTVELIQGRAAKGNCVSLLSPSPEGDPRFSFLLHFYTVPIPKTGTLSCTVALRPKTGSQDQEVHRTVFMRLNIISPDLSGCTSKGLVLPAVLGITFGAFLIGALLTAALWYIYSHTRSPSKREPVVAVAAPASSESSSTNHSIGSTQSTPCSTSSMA
measurement-description: FACS KD determination on HUVEC cells, 4° C., nonlinear fit of geometric mean fluorescence
recorded-metric: Kd (nM)
Give the value, in units of nM, as a plain number.

fully human monoclonal antibody 6B1 (antibody, V domains shown, XenoMouse hybridoma antibody of Campaign 2 (IgG2 and IgG4 strains); also called 6B1.1) VH: QVQLVESGGGVVQPGRSLRLSCAASGFTFSSYGMHWVRQAPGKGLEWVAVIWYDGSNKYYADSVKGRFTISRDNSKNTLYLQMNSLRAEDTAVYYCVRDYSSGWYWGQGTLVTVSS VL: SYELTQPPSVSVSPGQTARITCSGDALPKKYAYWYQQKSGQAPVLVIYEDSKRPSGIPERFSGSSSGTMATLTISGAQVEDEADYSCYSIDSSVNHVVFGGGTKLTVL: 2.3

Next binder, Kd to be filled in.
Ask: # Kd lookup, item fully human monoclonal antibody 11H2 (antibody, V domains shown, XenoMouse hybridoma antibody of Campaign 2 (IgG2 and IgG4 strains); also called 11H2.1) VH: QVQLVESGGGVVQPGRSLRLSCAASGFSFSSYGMHWVRQAPGKGLDWVAIIWYDGSYKYYADSVKGRFTISRDNSKNTLSLQMNSLRAEDTAVYYCARDGKYPFDYWGQGTLVTVSS VL: SYVLTQPPSVSVAPGQTARITCGGNNIGSKSVHWYQQKPGQAPVLVVYDDSDRPSGIPERFSGSNSGNTATLTISRVEAGDEADYYCQVWDRSSDHVVFGGGTKLTVL
Result: 0.338

Just for reference, patent US20100196398A1 is where these values come from.
